Test: Metabolic stability in female rat hepatocytes assessed as compound metabolism level
Format: ADME, cell-based, Hepatocyte
Details: read-out: Activity
MEASUREMENT_KIND: metabolised (%)

> print(dat)
                                 mol.smiles  quantity.unit  result
1  O=C(NC1CC1)c1cn(-c2cccc(-c3ccc([C@@H]4C[C@H]4C(=O)O)c(F)c3)c2)c2ncccc2c1=O              %      20

* * *

Target: 3',5'-cyclic-AMP phosphodiesterase 4A (Homo sapiens, UniProt P27815)
Sequence (P27815 whole entry): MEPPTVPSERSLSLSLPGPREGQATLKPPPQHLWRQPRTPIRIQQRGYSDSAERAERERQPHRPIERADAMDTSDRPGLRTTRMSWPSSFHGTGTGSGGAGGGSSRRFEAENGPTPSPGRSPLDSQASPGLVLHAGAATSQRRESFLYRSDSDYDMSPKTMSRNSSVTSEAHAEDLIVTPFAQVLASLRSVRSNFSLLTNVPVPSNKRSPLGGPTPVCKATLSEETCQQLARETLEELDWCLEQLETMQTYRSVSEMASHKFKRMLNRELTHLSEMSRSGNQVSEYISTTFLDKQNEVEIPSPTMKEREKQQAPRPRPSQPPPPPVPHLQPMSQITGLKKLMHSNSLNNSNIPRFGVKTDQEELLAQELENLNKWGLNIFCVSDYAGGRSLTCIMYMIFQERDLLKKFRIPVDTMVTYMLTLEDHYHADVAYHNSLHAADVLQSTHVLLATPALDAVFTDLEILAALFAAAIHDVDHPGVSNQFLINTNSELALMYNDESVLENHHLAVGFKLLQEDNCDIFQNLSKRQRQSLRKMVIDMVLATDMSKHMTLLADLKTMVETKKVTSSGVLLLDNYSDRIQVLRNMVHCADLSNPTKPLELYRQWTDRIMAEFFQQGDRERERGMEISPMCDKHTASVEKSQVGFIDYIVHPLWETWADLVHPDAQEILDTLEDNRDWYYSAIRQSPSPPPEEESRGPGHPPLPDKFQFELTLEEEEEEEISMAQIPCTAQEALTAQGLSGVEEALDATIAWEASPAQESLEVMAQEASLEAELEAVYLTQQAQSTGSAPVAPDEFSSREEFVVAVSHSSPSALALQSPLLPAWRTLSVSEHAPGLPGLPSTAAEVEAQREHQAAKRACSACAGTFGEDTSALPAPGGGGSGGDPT
Assay: Inhibition of PDE4A
Conditions: pooled result: one value given for 3 cell lines, strains, targets or settings
Reported IC50 by item:
MEASUREMENT_KIND: IC50

> print(dat)
                                   compound    result
1  O=C(NC1CC1)c1cn(-c2cccc(-c3ccc(C4CC4c4nnn[nH]4)cc3)c2)c2ncccc2c1=O (racemic)    550 pM
2  O=C(NC1CC1)c1cn(-c2cccc(-c3ccc([C@H]4C[C@@H]4C(=O)O)cc3)c2)c2ncccc2c1=O    660 pM
3  O=C(NC1(O)CC1)c1cn(-c2cccc(-c3ccc(C4CC4C(=O)O)cc3)c2)c2ncccc2c1=O (racemic)  17000 pM
